Listing of recorded growth by entry.
system: HCT-15 colon; test: NCI-60 one-dose screen, 48 h (100 = growth as untreated, 0 = no growth, -100 = all killed); details: 10 µM unless noted
The panel holds about 83,000 compounds, 20% with a hit somewhere; the sample as a whole holds those more often.
Just the number in %, nothing appended.

# MOLECULE, MEASURED TARGET, REPORTED PROPERTY, TEST VALUE
measured = [
    ("COc1cc(-c2nc(Nc3nc4ccccc4[nH]3)nc(N)c2C#N)cc(OC)c1OC", "HCT-15 colon", "growth", 59.1),
    ("Cc1nc2ccc(Cl)cc2n1C", "HCT-15 colon", "growth", 113),
    ("O=C(CCc1nnc2sc(/C=C\\c3ccccc3)nn12)c1nc2ccccc2[nH]1", "HCT-15 colon", "growth", 99.6),
    ("c1ccc2c(c1)oc1cc3c(cc12)nnc1cccn13", "HCT-15 colon", "growth", 104),
]

// switching to the query molecule
q: Consider the molecule CCCCOC(=O)C1OC(Oc2ccc3c(C)cc(=O)oc3c2)[C@@H](OC(C)=O)C(OC(C)=O)C1OC(C)=O (stereo not given in full) and give its measured growth.
a: 99.2
